tested on: K98450-129-R-PDC complex spheroid growth, percent test/control; assay: Anticancer human tumor K98450-129-R-PDC patient-derived colon adenocarcinoma cell line growth inhibition [RAS]; conditions: second compound 0.316 µM; first compound 0.316 µM; stronger effect = lower value;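 also: luminescence used as a proxy for viable cell amount; spheroids exposed to agents for seven days before the viability readout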
EXPERIMENTAL_ENDPOINT: viability, T/C (%)

COMPOUND: CC(=O)OC12COC1CC(O)C1(C)C(=O)C(O)C3=C(C)C(OC(=O)C(O)C(NC(=O)OC(C)(C)C)c4ccccc4)CC(O)(C(OC(=O)c4ccccc4)C21)C3(C)C (configuration not stated) + C=CC(=O)N1CCN(c2nc(OCC3CCCN3C)nc3c(F)c(-c4nc(N)cc(C)c4C(F)(F)F)c(Cl)cc23)C(C)C1
U: %
OBS_VALUE: 14

COMPOUND: CC(=O)OC12COC1CC(O)C1(C)C(=O)C(O)C3=C(C)C(OC(=O)C(O)C(NC(=O)OC(C)(C)C)c4ccccc4)CC(O)(C(OC(=O)c4ccccc4)C21)C3(C)C (configuration not stated) + C#Cc1c(F)ccc2cc(O)cc(-c3ncc4c(N5CC6CCC(C5)N6)nc(OCC56CCCN5CC(F)C6)nc4c3F)c12
U: %
OBS_VALUE: 59
